# Test system: HOP-62 NSCLC
# Test details: NCI tumour cell line growth inhibition, 48 h
Outcome measure: TGI

In plain terms, Cc1cc(N(CCOS(C)(=O)=O)CCOS(C)(=O)=O)ccc1C(=O)O has a documented TGI of > 100 µM

In plain terms, COc1ccc(C(=O)c2cc(C)c(OC)c(C)c2)c(OC)c1NC(C)=O has a documented TGI of > 100 µM

In plain terms, CC1(C)O[C@@H](C[C@]2(C#N)C[C@H](CCl)OC(C)(C)O2)C[C@@H](C#N)O1 has a documented TGI of > 100 µM

---

# Tested on: COLO 205 colon
# Test details: NCI tumour cell line growth inhibition, 48 h
Outcome measure: TGI

In plain terms, O=C(Nc1ccccc1I(=O)=O)C1CCCCC1 has a documented TGI of > 100 µM

In plain terms, Cc1c2cccc-2ccc2c3ccccc3n(C(=O)c3ccc(Cl)cc3)c12 has a documented TGI of > 100 µM

In plain terms, CCOC(=O)/C(=C/c1cccc(Cl)c1)N(CC)CC has a documented TGI of > 100 µM

In plain terms, O=c1[nH]nc(Cc2ccc(Cl)cc2)n1/N=C/c1ccc([N+](=O)[O-])o1 has a documented TGI of > 20.1 µM

In plain terms, Cc1nc(Nc2ccccc2Cl)sc1C(=O)CC(=O)C(N)=O has a documented TGI of > 100 µM

In plain terms, NC(N)=NC1C(O)C(O)C(O)C(N=C(N)N)C1O (configuration not stated) has a documented TGI of > 100 µM

In plain terms, Cn1c(=O)sc2cc(C(=S)N3CCCCC3)ccc21 has a documented TGI of > 100 µM

In plain terms, C/C(CN1C(=O)c2ccccc2C1=O)=N\NS(=O)(=O)c1cccc(C(=O)O)c1 has a documented TGI of > 100 µM

In plain terms, CCN(CC)CC1CCCCN1CC(=O)N1CC(C)C(=O)Nc2ccccc21 (configuration not stated) has a documented TGI of > 100 µM

In plain terms, O=C1NC(Cc2ccc(O)cc2)C(=O)NC1Cc1ccc(O)cc1 (configuration not stated) has a documented TGI of > 100 µM

In plain terms, COc1ccc2nc(C(=O)c3ccccc3)c(C)cc2c1 has a documented TGI of > 34.5 µM

In plain terms, Cc1ccc2nc(NC(=O)C(=O)C(C#N)c3ccc(Cl)cc3)sc2c1 (configuration not stated) has a documented TGI of > 50 µM

Origin of measurements: PubChem BioAssay (NCI)
